ASSAY: growth inhibition of non-replicating M. tuberculosis (AID 488890);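 also: plate controls were DMSO cells for no effect and high antibiotic wells for full effect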
ASSAY_CONDITIONS: Mycobacterium tuberculosis non-replicating, at 25 µM, stronger effect = higher value
The whole screen tested about 320,000 compounds, of which about 1,300 (0.41%) were called active. Not shown: some 3% with an inconclusive outcome. Not all results are given here. Potency and affinity values are given separately.
REPORTED_METRIC: inhibition (%)
Provide the reading as a plain figure in %.

Looking up CN(C)c1ccc(-c2nnc(-c3cccs3)o2)cc1 , I found its inhibition recorded as 48.7

Quick note, inhibition for CCCCCCCCCCC(=O)NNC(=O)c1c(O)c2ccccc2n(CC)c1=O landed at -9.98

Looking up COC(=O)c1cn(NC(=O)c2ccncc2)c(=O)c2ccccc12 , I found its inhibition recorded as 14.3

Measured inhibition of Cc1ccc(/C=N/NC(=O)c2cccnc2)o1 : 7.34

Cc1ccc(C(=O)N/N=C/c2ccc(-c3cccc(Cl)c3)o2)cn1 yielded inhibition of -3.58

Short answer for COc1ccc(N2CCN(c3ccc(N)cc3C#N)CC2)cc1 : inhibition was -1.74

Reported inhibition of COc1cc(CNCCO)cc(Br)c1OCc1ccccc1Cl : 79

What the record says about Cc1ccc(NC(=O)C2=NNC(=O)CC2)cc1S(=O)(=O)Nc1ccc(SC(F)F)cc1 : inhibition is 6.44

Field inhibition (entry O=C(COC(=O)c1ccccc1NCCO)NCC1CCCCC1 ) reads 23.3

Documented inhibition of O=[N+]([O-])c1ccccc1Oc1cnc2ccccc2n1 : 46.2

In plain terms, O=C(Cc1ccccc1)NC(c1ccco1)c1c(O)ccc2ccccc12 (configuration not stated) has a documented inhibition of 11.6

Kindly note the recorded inhibition for CCC(=O)N/N=C/c1ccc(-c2ccc([N+](=O)[O-])cc2)o1 , which is 74.5

// recorded inhibition for Cc1ccc(C(C)(C)NC(=O)C2CCC(=O)N(C3CCCCCC3)C2)cc1 (configuration not stated) : 8.48

inhibition recorded for this compound, O=C(NCc1cccnc1)c1ccc(S(=O)(=O)N2CCCCCC2)cc1 , is 5.4

Reported inhibition of CC(=O)Nc1ccc(Oc2nc(C(F)(F)F)nc3ccccc23)cc1 : 1.04

// field: inhibition; key: c1ccc(-c2nnc(-c3ccccc3)o2)cc1 ; value = 66.5

The reported value for O=C(O)C1CC(=O)N(c2ccc3c(c2)OCCO3)C1 (configuration not stated) in terms of inhibition is -10.2

Given item CCN(CC1CCCN(CCc2cccc(OC)c2)C1)C(=O)c1ccoc1C (configuration not stated) , the value recorded as its inhibition is -3.45

Short answer for CCCCn1c(N)c(N(CCC(C)C)C(=O)COC(=O)c2cccnc2Cl)c(=O)[nH]c1=O : inhibition was 17.4

Query O=C(NNc1cccc(Cl)n1)Nc1ccc(F)cc1 yields inhibition of 9.17

Please fill in: inhibition reported for CCCNC(=O)C(Cc1ccccc1)NC(=O)c1ccc(-c2ccccc2)cc1 (configuration not stated) = 4

Per the records, this compound ( N#Cc1cc(N)ccc1Sc1ccccc1 ) has inhibition equal to 9.77

// inhibition lookup, compound = CC(C)CC(NC(N)=O)C(=O)Nc1ccc(Cl)c(Cl)c1 (configuration not stated) , result: 13.8

Documented inhibition of Cc1ccc(/C=N/NC(=O)c2ccc(-c3ccccc3)cc2)o1 : 4.22

The recorded inhibition for entry CC(C)CN(C(=O)Cn1nnc(-c2ccc(F)cc2)n1)C1CCS(=O)(=O)C1 (configuration not stated) equals 2.71

Entry Cc1ccc(C(=O)N/N=C\c2ccc(-c3ccc(Cl)c(Cl)c3)o2)cn1 , inhibition reported as 16.6

The compound listed as CCOc1cc(CNCCO)cc(Br)c1OCc1ccccc1 shows inhibition equal to 75.9

Documented inhibition of Cc1ccc(-c2nnc(-c3ccccc3Br)o2)cc1 : 78.7

inhibition reported for this compound CC1CCC(NC(=O)c2cc3ccccc3cc2O)CC1 (configuration not stated) : 38.1

CC1CCCN(CCOCCSc2ccccc2)C1 (configuration not stated) yielded inhibition of 13.4

The recorded inhibition for entry O=C(N/N=C/c1cc(Br)cc(Br)c1O)c1ccncc1 equals 57.1

inhibition for COC(=O)c1cn(NC(=O)c2cccnc2)c(=O)c2ccccc12 is -6.97

inhibition reading for CC(=O)N(Cc1ccccc1)Cc1cn(CCC#N)nc1-c1cccc([N+](=O)[O-])c1 : -6.03

Reported inhibition for CCNC(=O)/N=C1/NC(=O)C(C(C)C)O1 (configuration not stated) was 0.48

get_value(item= COc1cc(CNCCO)cc(Br)c1OCc1ccccc1 , readout=inhibition) returns 28.5

The compound listed as CCc1nnc(NC(=O)CSc2nncc(=O)n2N)s1 has a reported inhibition of -12.3

Per the records, this compound ( COc1ccc(-c2nnc(-c3cccs3)o2)cc1OC ) has inhibition equal to 60.7

Lookup result for CC(CNC(=O)c1ccc(OC2CCN(Cc3ccccn3)CC2)cc1)Oc1cccnc1 (configuration not stated) ; measured inhibition: 0.447

For this compound ( Cc1[nH]n(-c2ccccc2)c(=O)c1C=Nc1cccc(F)c1 ), measured inhibition is 5.36

// inhibition lookup, compound = Cc1[nH]n(-c2ccccc2)c(=O)c1C=Nc1cccc2cccnc12 , result: 33.6

inhibition for Cc1cc(C)nc(NC(=O)c2ccc(Br)s2)n1 is 55.2

For record N#Cc1ccc(S(=O)(=O)N2CCC(C(=O)Nc3cccc(C(=O)NC4CC4)c3)CC2)cc1 the listed inhibition is 4.79

The compound Fc1ccc(-c2nnc(-c3ccc(Cl)cc3)o2)cc1 showed inhibition equal to 72.1

Field inhibition (entry O=C(N/N=C/c1ccc(Br)s1)c1cccs1 ) reads 79.8

The compound listed as C=CCN1C(=O)c2ccc(C(=O)OCC(=O)Nc3ccccc3OC)cc2C1=O shows inhibition equal to -2.33

Record summary for CCCC(c1nnnn1CCc1ccccc1)N1CCC(C(N)=O)CC1 (configuration not stated) : reported inhibition = 8.84

Input COc1ccccc1-c1nnc(-c2ccc(N3CCOCC3)cc2)o1 . Output inhibition: 18.5

All values here come from PubChem BioAssay AID488890.
